- System: CD69
- ASSAY REMARKS: Induction of CD69 in human whole blood
- Format: cell-based
- CONDITIONS: Homo sapiens, 17 h, 100% set to 1 uM of resiquimod, average where assay performed multiple times, read-out: hWB CD69 EC50
- Description: The induction of Type I interferon (IFN) MX-1 genes and the B-cell activation marker CD69 are downstream events that occur upon activation of the TLR7 pathway. […] Centrifuge at 2000 rpm for 5 minutes aspirate with HCS plate washer, mix on shaker for 30 sec and then wash with 70 uL in dPBS and pelleted 2×s (2000 rpm for 5 min) and 50 ul wash in FACS buffer pelleted 1×s (2000 rpm for 5 min). […] Plates were read on iQuePlus. […]
READOUT NAME: EC50 (nM)

Answered examples (3):
smiles_code=CCCCNc1nc(N)nc2cnn(Cc3cc(F)c(N4CCNCC4)cc3OC)c12 measure_unit=nM value_observed=58.2
smiles_code=CCC[C@@H](CCO)Nc1nc(N)nc2cnn(Cc3ncc(C4CCN(C(=O)CN(C)C)CC4)cc3OC)c12 measure_unit=nM value_observed=11.7
smiles_code=CCCCNc1nc(N)nc2cnn(Cc3cc(F)c(N4CCN(C(=O)CN5CC(OC)C5)CC4)cc3OC)c12 measure_unit=nM value_observed=37.1

a: CCCCNc1nc(N)nc2cnn(Cc3ncc(C4CCN(CCO)CC4)cc3OC)c12
b: CCC[C@@H](CCO)Nc1nc(N)nc2cnn(Cc3nc(C4CCNCC4)ccc3OC)c12
c: CCCCNc1nc(N)nc2cnn(Cc3ncc(C4CCN(C5CCOCC5)CC4)cc3OC)c12
d: CCCCNc1nc(N)nc2cnn(Cc3ncc(C4CCN(C(=O)CN5C[C@@H]6C[C@H]5CN6)CC4)cc3OC)c12
e: CCC[C@@H](CCO)Nc1nc(N)nc2cnn(Cc3cnc(C4CCN(C(C)C)CC4)cc3OC)c12
-- ask Arrange the 5 compounds by rising EC50, starting with the smallest. Submit the labels in the order that the ranking request calls for.
-- reply e, a, c, b, d
(e: 0.17 nM, a: 3.6 nM, c: 5.9 nM, b: 242 nM, d: 890 nM)
